Test system: serum cholesterol
measurementProtocol: Serum cholesterol (modified Liebermann-Burchard reaction) in mice
Format: in vivo, male CF1 mice
settings: Mus musculus, 216 h; Day 9; 20 mg./kg./day intraparenterally; male CF1 mice; read-out: Serum Cholesterol, % of Control, Day 9
Known response vs control in vivo at 20 mg/kg of a selection of molecules
Write down the numeric answer in % and omit the unit.

{"molecularString": "CCCCCCCCCCN", "measuredTarget": "serum cholesterol", "unitAnnotation": "%", "response vs control in vivo at 20 mg/kg": 48}
{"molecularString": "CCCCCCCCCCCCCN", "measuredTarget": "serum cholesterol", "unitAnnotation": "%", "response vs control in vivo at 20 mg/kg": 69}
{"molecularString": "CCCCCCCCCCCCCCN", "measuredTarget": "serum cholesterol", "unitAnnotation": "%", "response vs control in vivo at 20 mg/kg": 50}
{"molecularString": "CCCCCCCCCCCCCCCCCCNC", "measuredTarget": "serum cholesterol", "unitAnnotation": "%", "response vs control in vivo at 20 mg/kg": 51}

Give response vs control in vivo at 20 mg/kg for CCCCCCCCCCCCCCCCCCN 72

Give response vs control in vivo at 20 mg/kg for CCCCCCCCCCCCN 63

Give response vs control in vivo at 20 mg/kg for CCCCCCCCCCCN 61

Give response vs control in vivo at 20 mg/kg for CCCCCCCCCCCCCCCCN 39

Give response vs control in vivo at 20 mg/kg for CCCCCCCCCCCCCCCCCCN(C)C 76

* * *

Tested on: serum triglyceride
measurementProtocol: Serum triglyceride (Fisher-Hycel Triglyceride Test Kit) in mice
Type: in vivo, male CF1 mice
settings: Mus musculus, 384 h; Day 16; 20 mg./kg./day intraparenterally; male CF1 mice
parameterMeasured: response vs control in vivo at 20 mg/kg (%)
Write down the numeric answer in % and omit the unit.

{"molecularString": "CCCCCCCCCCCCCN", "measuredTarget": "serum triglyceride", "parameterMeasured": "response vs control in vivo at 20 mg/kg", "observedResult": 73}

Give response vs control in vivo at 20 mg/kg for CCCCCCCCCCCCCCCCN 63

Give response vs control in vivo at 20 mg/kg for CCCCCCCCCCCCCCN 54

Give response vs control in vivo at 20 mg/kg for CCCCCCCCCCN 59

Give response vs control in vivo at 20 mg/kg for CCCCCCCCCCCCCCCCCCN(C)C 56

Give response vs control in vivo at 20 mg/kg for CCCCCCCCCCCN 66

Give response vs control in vivo at 20 mg/kg for CCCCCCCCCCCCCCCCCCNC 64

Give response vs control in vivo at 20 mg/kg for CCCCCCCCCCCCN 64

Give response vs control in vivo at 20 mg/kg for CCCCCCCCCCCCCCCCCCN 56
